# protocol_details: Precipitation with CO2 in solutions containing different amino acids, ethanol and water (table 3)
# Format: physicochemical
# experimental_parameters: 20 wt. % water, 80% wt. % ethanol, 0.5M NaOH
property_measured: Concentration of amino acid in the liquid, Before precipitation (g/L)

Briefly, Concentration of amino acid in the liquid, Before precipitation measured for NCCCC[C@H](N)C(=O)O [Lysine] : 10.3

Briefly, Concentration of amino acid in the liquid, Before precipitation measured for N[C@@H](Cc1ccccc1)C(=O)O [Phenylalanine] : 10.3

Briefly, Concentration of amino acid in the liquid, Before precipitation measured for CSCC[C@H](N)C(=O)O [Methionine] : 10.2

Briefly, Concentration of amino acid in the liquid, Before precipitation measured for CC(C)C[C@H](N)C(=O)O [Leucine, L-leucine] : 10.3

---

# protocol_details: Precipitation with CO2 in solutions containing different amino acids, ethanol and water (table 3)
# Format: physicochemical
# experimental_parameters: 20 wt. % water, 80% wt. % ethanol, 0.5M NaOH; after CO2
# Text: A variety of eluates, comprising different amino acids, and solvent concentrations were subjected to the precipitation stage as summarized in table 3: […]
property_measured: Concentration of amino acid in the liquid, After precipitation (µg/mL)

Completed entries (count: 3):
Briefly, Concentration of amino acid in the liquid, After precipitation measured for "CSCC[C@H](N)C(=O)O" : 4100

Briefly, Concentration of amino acid in the liquid, After precipitation measured for "NCCCC[C@H](N)C(=O)O" : 3400

Briefly, Concentration of amino acid in the liquid, After precipitation measured for N[C@@H](CCC(=O)[O-])C(=O)[O-].[Na+].[Na+] [Sodium glutamate] : 800

a = CC(C)C[C@H](N)C(=O)O
b = N[C@@H](CCC(=O)O)C(=O)O
c = N[C@@H](Cc1ccccc1)C(=O)O
Prompt: hey, can you rank those compounds up there by Concentration of amino acid in the liquid, After precipitation? biggest number first please The response must list the labels following the requested ordering.
Completion: a, c, b
(a: 9100 µg/mL, c: 3600 µg/mL, b: 700 µg/mL)

---

# protocol_details: Precipitation with CO2 in solutions containing different amino acids, ethanol and water (table 3)
# Assay type: physicochemical
# experimental_parameters: 50 wt. % water, 50 wt. % ethanol, 0.5M NaOH; after CO2
property_measured: Concentration of amino acid in the liquid, After precipitation (µg/mL)

Briefly, Concentration of amino acid in the liquid, After precipitation measured for "NCCCC[C@H](N)C(=O)O" : 10600

Briefly, Concentration of amino acid in the liquid, After precipitation measured for "CSCC[C@H](N)C(=O)O" : 9600

Briefly, Concentration of amino acid in the liquid, After precipitation measured for N[C@@H](CCC(=O)[O-])C(=O)[O-].[Na+].[Na+] [Sodium glutamate] : 10800

Briefly, Concentration of amino acid in the liquid, After precipitation measured for "N[C@@H](Cc1ccccc1)C(=O)O" : 10300

Briefly, Concentration of amino acid in the liquid, After precipitation measured for "CC(C)C[C@H](N)C(=O)O" : 10200

---

# protocol_details: Precipitation with CO2 in solutions containing different amino acids, ethanol and water (table 3)
# Assay type: physicochemical
# experimental_parameters: 37.6 wt. % water, 62.4 wt. % ethanol, 0.5M NaOH; after CO2
# Description: A variety of eluates, comprising different amino acids, and solvent concentrations were subjected to the precipitation stage as summarized in table 3: […]
property_measured: Concentration of amino acid in the liquid, After precipitation (µg/mL)

Completed entries (count: 2):
Briefly, Concentration of amino acid in the liquid, After precipitation measured for "N[C@@H](Cc1ccccc1)C(=O)O" : 9100

Briefly, Concentration of amino acid in the liquid, After precipitation measured for N[C@@H](CCC(=O)[O-])C(=O)[O-].[Na+].[Na+] [Sodium glutamate] : 4300

A = CSCC[C@H](N)C(=O)O
B = N[C@@H](CCC(=O)O)C(=O)O
Prompt: Which of the two items, A and B , has the greater recorded Concentration of amino acid in the liquid, After precipitation? Mark your answer with the label of the selected entry.
Completion: A
